# test_system: Dickkopf-related protein 1 (Homo sapiens) (UniProt O94907)
# Sequence (O94907 whole entry, looked up): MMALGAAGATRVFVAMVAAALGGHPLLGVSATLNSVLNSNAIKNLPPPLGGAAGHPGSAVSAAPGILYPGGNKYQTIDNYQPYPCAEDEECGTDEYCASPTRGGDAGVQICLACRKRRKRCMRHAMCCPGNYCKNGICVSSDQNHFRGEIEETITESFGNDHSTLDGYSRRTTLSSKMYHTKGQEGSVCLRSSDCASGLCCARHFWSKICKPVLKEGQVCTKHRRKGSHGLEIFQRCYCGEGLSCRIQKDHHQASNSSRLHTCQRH
# method_summary: DKK1 binders on small-molecule microarrays, primary screen, biochemical, small-molecule microarray, 635 nm fluorescence scan (AID 1106);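 also: score merges emission near 667 nm with signal to noise over three replicate slides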
# condition_parameters: DKK1 binding, higher = more signal
assay_metric: composite z-score
Quick one: just the number, no unit, thanks!

See these solved cases before continuing.
C[C@@H]1ON(c2ccc(C(=O)OC(C)(C)C)cc2)[C@H](c2ccc(O)cc2)[C@H]1C(=O)N1C(=O)OC[C@H]1Cc1ccccc1 0.449
COC(=O)[C@@]1(Cc2ccccc2)[C@H]2c3cc(C(=O)N(C)C)n(CCc4ccc(O)c(OC)c4)c3C[C@H]2CN1C(=O)c1ccccc1 0.358
COC(=O)[C@@]1(Cc2ccccc2)[C@H]2c3cc(C(=O)N(C)C)n(Cc4c(CO)[nH]cc(C)c4=O)c3C[C@H]2CN1C(=O)c1ccccc1 -0.296

# next compound below
input: State the recorded composite z-score for this entry: `CCCC[C@@H]1C[C@H]1[C@@H](NC(=O)c1ccccc1)c1ccc(C(F)(F)F)cc1`
output: -0.993

src = PubChem BioAssay
